# METHOD SUMMARY: inhibitors of the yeast RAM network, pilot screen, dse1pr::URA3 reporter, 5-FOA selection (AID 869);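 note: 0% = DMSO wells with no growth and 100% = 10 µM 1-NA-PP1 with full growth; RAM network block rescues cells from 5-FOA so hits raise OD615 growth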
# COND: S. cerevisiae dse1pr::URA3 5-FOA growth, OD615, 2 d; at 10 µM; active compounds read high; strain carries analog-sensitive mutant Cbk1 kinase
PARAMETER: inhibition (%)
Kindly answer with a numeric value in %, unit omitted.

# inhibition (compound: COc1ccc(-c2nc(=S)[nH][nH]2)cc1 ) is 1.53

Entry O=C(Nc1nccs1)c1ccc(Cl)s1 ; inhibition = -0.025

Summary for this compound, Cc1cc(C)c(NC(=O)CSc2nnc(-c3ccncc3)n2Cc2ccco2)c(Cl)c1 : inhibition is 1.79

Field: next compound
Measured inhibition, COc1ccc(CN2CCCC2C(=O)Nc2ccc(OC)c(OC)c2)cc1OC (centres undefined) : 0.71

---

# METHOD SUMMARY: inhibitors of the yeast RAM network, pilot screen, dse1pr::URA3 reporter, 5-FOA selection (AID 869);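 note: 0% = DMSO wells with no growth and 100% = 10 µM 1-NA-PP1 with full growth; RAM network block rescues cells from 5-FOA so hits raise OD615 growth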
# COND: S. cerevisiae dse1pr::URA3 5-FOA growth, OD615, 2 d; at 10 µM; active compounds read high; strain carries analog-sensitive mutant Cbk1 kinase
Let's look at some molecules and their measured inhibition.
Express the result in % but write the number alone.

Memo: CN(C)CCNC(=O)c1ccc2c(c1)N(Cc1ccc(F)cc1)CCS2 , reported inhibition: 0.835

Lab note: O=C(O)c1c(F)c(F)c(F)c(F)c1-c1ccc(Cl)cc1 gave inhibition of -0.105

Briefly, inhibition measured for COc1ccc(NC(=O)CN2CC(c3ccccc3)CC2=O)cc1OC (configuration not stated) : 0.27

Record O=C(NCCCN1CCCC1)c1ccc(CS(=O)(=O)c2ccc(Br)cc2)o1 . Reported inhibition: 1.63

Form: molecule = O=C(O)COc1ccc2c(c1)OCCO2 ; inhibition = 1.04

Summary for this molecule, CC1(C)Cc2ccccc2-c2nc(NCCO)n(-c3ccccc3)c(=O)c21 : inhibition is -0.14

The recorded inhibition for entry O=C(NCCCc1ccccc1)C1CCN(c2nnc(-n3cccc3)s2)CC1 equals 0.175

---

# METHOD SUMMARY: viability gain of MRP-1-high H69AR cells under doxorubicin, pilot screen, MRP-1 activator project, CellTiter-Glo, duplicate (AID 807);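 note: compound pretreatment 18-22 h then 72 h combined with doxorubicin; 0% = doxorubicin alone and 100% = vehicle without doxorubicin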
# COND: H69AR viability with doxorubicin, CellTiter-Glo luminescence; at 10 µM; active compounds read high
The source made the active and inactive calls.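 The calls were made as follows: active = viability increase at or above a cutoff of the median across tested compounds plus 3 SD (cut at about 8.5% in these data, passing the limit was not always enough); inconclusive = some gains above the cutoff, reason not given; inactive = the rest.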
PARAMETER: viability increase

Record C/C(NCCN1CCOCC1)=C(\C#N)C(N)=O . Reported viability increase: -0.51% (inactive)

COc1cccc(C2NC(C)(C(=O)O)C3C(=O)N(C(C)C)C(=O)C23)c1O (configuration not stated) has a reported viability increase of -1.19% (inactive)

Summary for this compound, Cc1cc(C)c(S(=O)(=O)N2CCN(CCO)CC2)c(C)c1 : viability increase is 0.8% (inactive)

What the record says about Brc1ccc(C2Nc3cccc4cccc(c34)N2)o1 : viability increase is -0.34% (inactive)

For reference, reported viability increase for CC(=O)c1ccc(C(=O)Nc2ccc(N3CCOCC3)cc2)cc1 stands at 3.45% (inactive)

---
# viability increase (compound: COc1ccc(-c2nn(-c3ccccc3)cc2C(=O)O)cc1 ) is -3.69% (inactive)

Input CCOc1ccccc1NC(=O)C1Cc2ccccc2CN1S(C)(=O)=O (configuration not stated) . Output viability increase: -5.66% (inactive)

---

# METHOD SUMMARY: viability gain of MRP-1-high H69AR cells under doxorubicin, pilot screen, MRP-1 activator project, CellTiter-Glo, duplicate (AID 807);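 note: compound pretreatment 18-22 h then 72 h combined with doxorubicin; 0% = doxorubicin alone and 100% = vehicle without doxorubicin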
# COND: H69AR viability with doxorubicin, CellTiter-Glo luminescence; at 10 µM; active compounds read high
Item-by-item account of viability increase
Give the value in % but do not write % after it.

# viability increase (compound: CCOC(=O)Cn1c(=O)oc2cc(S(=O)(=O)N(C)Cc3ccco3)ccc21 ) is -4.08

Summary for this compound, CCOC(=O)c1c(C)n(C)c2ccc(OCC(O)CN3CCC(C)CC3)cc12 (configuration not stated) : viability increase is -5.47

The measured viability increase associated with CCN(CC(=O)NCc1ccc(F)cc1)C(=O)C1CCN(C(=O)Nc2ccccc2)CC1 reads -0.13

The value of viability increase measured for the compound CCOc1ccccc1N(CC)C(=O)Cn1ncc2c(=O)oc3ccccc3c21 turned out to be -1.85

Looking up COc1ccc(CNC(=O)C2CCN(S(=O)(=O)c3cccc4cccnc34)CC2)cc1 , I see its viability increase listed as 0.11

New cases:
Note to self: viability increase recorded for Cc1sc2nc(SCC(=O)NCc3ccco3)[nH]c(=O)c2c1C was -3.92

Measured viability increase, COc1ccc(N2CCN(Cc3nc4c(c(=O)n(C)c(=O)n4C)n3Cc3cccc(C)c3)CC2)cc1 : -3.88

Lab note: measured viability increase of Clc1ccc(Cc2nnc(-c3ccccc3Br)o2)cc1 was 4.88

Input COc1cccc(C2N(c3ccc(Cl)cc3)C(=O)C3CCCN32)c1 (configuration not stated) . Output viability increase: 0.15

---

Let's look at some compounds and their measured viability.
# METHOD SUMMARY: growth suppression of beta-catenin knockout HCT116, pilot screen, human colon tumor cells (AID 823);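 note: 0% = wells killed by 20 µM Hyamine and 100% = untreated DMSO cell wells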
# COND: CellTiter-Glo, 60 h, at 10 µM, active compounds read low
Inconclusive results are not listed.
Give just the numeric value; % need not be written.

Known viability results, listed for orientation:
Value of viability reported for the compound COCCCN(C(=O)Nc1ccccc1)C(C)c1ccncc1 (stereo not drawn) is 101

Note to self: viability recorded for O=C(c1ccco1)N1CCN(c2ncccn2)CC1 was 98.9

Further cases:
The compound identified as Cc1cc(C)cc(N(CC(=O)N2CCc3ccccc32)S(=O)(=O)c2c(C)noc2C)c1 registered its viability at 90.4

Memo: C=CCNc1nc2c(c(=O)n(C)c(=O)n2C)n1CC , reported viability: 107

# viability of O=C(Cc1cccs1)Nc1nnc(-c2ccncc2)s1 = 108

Form field viability, entry CCOC(=O)c1sc(NC(=O)c2ccc3ncsc3c2)nc1C : 84.2

For reference, reported viability for Cc1cc(C)cc(N(CC(=O)NC2CC3CCC2C3)S(C)(=O)=O)c1 (stereo not drawn) stands at 90.4

Recorded result, COc1ccc(S(=O)(=O)N2CCC(C(=O)N3CCc4ccccc4C3)CC2)cc1OC , viability: 89.4

Summary for this compound, CCNC(=O)CN(c1ccc(CC)cc1)S(C)(=O)=O : viability is 97.9

# viability (compound: CC(C)C(=O)Nc1c(C(=O)c2ccc(F)cc2)oc2ccccc12 ) is 105

---

# METHOD SUMMARY: growth suppression of beta-catenin knockout HCT116, pilot screen, human colon tumor cells (AID 823);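 note: 0% = wells killed by 20 µM Hyamine and 100% = untreated DMSO cell wells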
# COND: CellTiter-Glo, 60 h, at 10 µM, active compounds read low
Results filed as inconclusive are left out.
PARAMETER: viability (%)
Only the number, expressed in %, is required.

As a guide, the following entries are already answered.
# viability (compound: O=C(CN1C(=O)CSc2ncccc21)N1CCOCC1 ) is 97.9

The reported viability of the compound CCC(C)NC(=O)c1ccccc1NC(=O)CN1C(=O)c2ccccc2S1(=O)=O (stereo not drawn) was 105

Pending compound:
viability measured on CN(C)S(=O)(=O)c1ccc(-c2ccccc2)cc1 = 91.9

---

# METHOD SUMMARY: Restrictive medium S. cerevisiae growth inhibition, OD615, pilot screen of yeast lifespan reduction project, restrictive growth control (AID 706);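 note: modified DeaD lifespan yeast strain shifted to restrictive glucose medium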
# COND: OD615, 48 h, at 10 µM, active compounds read high
PARAMETER: growth inhibition (%)
Just the number in %, nothing appended.

Solved cases below.
Briefly, growth inhibition measured for CC(C)Sc1nc2c(c(=O)n1C)SC(C)C2 (stereo not drawn) : 2.86

Briefly, growth inhibition measured for CCOC(=O)NCCc1ccc(OC)cc1 : 5.72

// growth inhibition lookup, molecule = Cc1ccc(-c2nc(CSCC(=O)N3CCN(c4ccccn4)CC3)c(C)o2)cc1 , result: 15.5

So, O=C(O)CCSc1nnc(-c2ccccc2)n1-c1ccccc1 ? Its growth inhibition was 50.6

growth inhibition in this record for CCCCNc1nc2c(c(=O)n(C)c(=O)n2C)n1CCC : -0.415

Cc1c(C(=O)N2CCCC2)oc2c1-c1[nH]ncc1CC2 has a reported growth inhibition of -14.4

growth inhibition for O=C(CSc1ccc2c(c1)OCCO2)NC(=O)NC1CCCC1 is 2.58

Please find the next molecule below.
For record CCOCCOC(=O)C1=C(C)N(C)C(=O)NC1c1ccccc1Cl (stereo not drawn) the listed growth inhibition is -7.18

---

# METHOD SUMMARY: growth suppression of PTEN-deleted HCT116, pilot screen, cell-based, HCT116 clonal line, CellTiter-Glo (AID 824);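 note: 0% = 20 µM Hyamine control and 100% = vehicle cell control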
# COND: 60 h, at 10 µM, active compounds read low
Results filed as inconclusive are left out.
Catalogue of compounds with associated viability
Your answer is read as %, so omit the unit and give the number.

Use these answered entries as a reference point.
viability measured on CN1CCN(CCNC(=O)c2cc3c(=O)n(C)c4ccccc4c3n2C)CC1 = 81.3

Recorded viability (compound O=C(Nc1ccc(Oc2ccc(NC(=O)C3CCCO3)cc2)cc1)C1CCCO1 (stereo not given) ): 96.7

Kindly note the recorded viability for CCCn1c(NCc2ccc(N(C)C)cc2)nc2ccccc21 , which is 70.9

Looking up Cn1cc(SCC(=O)NCc2ccc3c(c2)OCO3)c2ccccc21 , I found its viability recorded as 95.1

// moving on: another record for viability
Just so you know, measured viability for COCCn1c(SCC(=O)OCc2ccccc2)nc2c1c(=O)[nH]c(=O)n2C came out at 105
